Test system: NCI-H727
Assay: relative viability (nuclei count vs DMSO), 5 days (fraction); higher = more cells survive
Conditions: first compound 2.53 µM
Note to self: relative viability under 0.6 means Condition met, ties and anything higher get Condition not met.

| Compound | Group |
| --- | --- |
| O=c1cc(-c2cccc3c2Sc2ccccc2S3)oc(N2CCOCC2)c1 + CCNC(=O)c1noc(-c2cc(C(C)C)c(O)cc2O)c1-c1ccc(CN2CCOCC2)cc1 [Luminespib] (partner 0.01 µM) | Condition met |
| COc1nc(C)cnc1NS(=O)(=O)c1cccnc1-c1ccc(-c2nnco2)cc1 [Zibotentan] + C[C@]1(O)C[C@@H](c2nc(-c3ccc4ccc(-c5ccccc5)nc4c3)c3c(N)nccn32)C1 [Linsitinib] (partner 1 µM) | Condition met |
| O=c1cc(-c2cccc3c2Sc2ccccc2S3)oc(N2CCOCC2)c1 + CS(=O)(=O)CCNCc1ccc(-c2ccc3ncnc(Nc4ccc(OCc5cccc(F)c5)c(Cl)c4)c3c2)o1 [Lapatinib] (partner 2 µM) | Condition not met |
| O=c1cc(-c2cccc3c2Sc2ccccc2S3)oc(N2CCOCC2)c1 + N=C(N)NC(=N)NCCc1ccccc1 [Phenformin] (partner 250 µM) | Condition met |
| O=c1cc(-c2cccc3c2Sc2ccccc2S3)oc(N2CCOCC2)c1 + COc1cc2c(Oc3ccc(NC(=O)C4(C(=O)Nc5ccc(F)cc5)CC4)cc3F)ccnc2cc1OCCCN1CCOCC1 [Foretinib] (partner 0.25 µM) | Condition not met |
| COc1nc(C)cnc1NS(=O)(=O)c1cccnc1-c1ccc(-c2nnco2)cc1 [Zibotentan] + Cc1nc(Nc2ncc(C(=O)Nc3c(C)cccc3Cl)s2)cc(N2CCN(CCO)CC2)n1 [Dasatinib] (partner 0.075 µM) | Condition met |

----------
Tested on: RERF-LC-KJ
Assay: relative viability (nuclei count vs DMSO), 5 days (fraction); higher = more cells survive
Details: first compound 0.253 µM
# note: boundary value 0.9 maps to condition not met; relative viability below it maps to condition met

| Compound | Group |
| --- | --- |
| O=c1cc(-c2cccc3c2Sc2ccccc2S3)oc(N2CCOCC2)c1 + CC(C)C[C@H](NC(=O)[C@H](Cc1ccccc1)NC(=O)c1cnccn1)B(O)O [Bortezomib] (partner 0.002 µM) | condition not met |
| O=c1cc(-c2cccc3c2Sc2ccccc2S3)oc(N2CCOCC2)c1 + CS(=O)(=O)N1CCN(Cc2cc3nc(-c4cccc5[nH]ncc45)nc(N4CCOCC4)c3s2)CC1 [Pictilisib] (partner 1 µM) | condition met |
| COc1nc(C)cnc1NS(=O)(=O)c1cccnc1-c1ccc(-c2nnco2)cc1 [Zibotentan] + CCNC(=O)c1noc(-c2cc(C(C)C)c(O)cc2O)c1-c1ccc(CN2CCOCC2)cc1 [Luminespib] (partner 0.01 µM) | condition not met |
| O=c1cc(-c2cccc3c2Sc2ccccc2S3)oc(N2CCOCC2)c1 + O=C(c1cc(Cc2n[nH]c(=O)c3ccccc23)ccc1F)N1CCN(C(=O)C2CC2)CC1 [Olaparib] (partner 8 µM) | condition not met |
| COc1nc(C)cnc1NS(=O)(=O)c1cccnc1-c1ccc(-c2nnco2)cc1 [Zibotentan] + CS(=O)(=O)N1CCN(Cc2cc3nc(-c4cccc5[nH]ncc45)nc(N4CCOCC4)c3s2)CC1 [Pictilisib] (partner 1 µM) | condition met |
| O=c1cc(-c2cccc3c2Sc2ccccc2S3)oc(N2CCOCC2)c1 + Nc1nc2[nH]cc(CCc3ccc(C(=O)N[C@@H](CCC(=O)O)C(=O)O)cc3)c2c(=O)[nH]1 [Pemetrexed] (partner 0.2 µM) | condition met |
| O=c1cc(-c2cccc3c2Sc2ccccc2S3)oc(N2CCOCC2)c1 + Cc1cc(Nc2cc(N3CCN(C)CC3)nc(Sc3ccc(NC(=O)C4CC4)cc3)n2)n[nH]1 [Tozasertib] (partner 0.1 µM) | condition met |
| COc1nc(C)cnc1NS(=O)(=O)c1cccnc1-c1ccc(-c2nnco2)cc1 [Zibotentan] + C[C@@H](Oc1cc(-c2cnn(C3CCNCC3)c2)cnc1N)c1c(Cl)ccc(F)c1Cl [Crizotinib] (partner 1 µM) | condition met |
| O=c1cc(-c2cccc3c2Sc2ccccc2S3)oc(N2CCOCC2)c1 + Nc1ncn([C@H]2C[C@H](O)[C@@H](CO)O2)c(=O)n1 [Decitabine] (partner 2 µM) | condition met |
